Entries and their IC50 values follow.
molecular target: Cone cGMP-specific 3',5'-cyclic phosphodiesterase subunit alpha' (Homo sapiens, UniProt P51160); assay: Inhibition of human PDE6C
Sequence (P51160 whole entry): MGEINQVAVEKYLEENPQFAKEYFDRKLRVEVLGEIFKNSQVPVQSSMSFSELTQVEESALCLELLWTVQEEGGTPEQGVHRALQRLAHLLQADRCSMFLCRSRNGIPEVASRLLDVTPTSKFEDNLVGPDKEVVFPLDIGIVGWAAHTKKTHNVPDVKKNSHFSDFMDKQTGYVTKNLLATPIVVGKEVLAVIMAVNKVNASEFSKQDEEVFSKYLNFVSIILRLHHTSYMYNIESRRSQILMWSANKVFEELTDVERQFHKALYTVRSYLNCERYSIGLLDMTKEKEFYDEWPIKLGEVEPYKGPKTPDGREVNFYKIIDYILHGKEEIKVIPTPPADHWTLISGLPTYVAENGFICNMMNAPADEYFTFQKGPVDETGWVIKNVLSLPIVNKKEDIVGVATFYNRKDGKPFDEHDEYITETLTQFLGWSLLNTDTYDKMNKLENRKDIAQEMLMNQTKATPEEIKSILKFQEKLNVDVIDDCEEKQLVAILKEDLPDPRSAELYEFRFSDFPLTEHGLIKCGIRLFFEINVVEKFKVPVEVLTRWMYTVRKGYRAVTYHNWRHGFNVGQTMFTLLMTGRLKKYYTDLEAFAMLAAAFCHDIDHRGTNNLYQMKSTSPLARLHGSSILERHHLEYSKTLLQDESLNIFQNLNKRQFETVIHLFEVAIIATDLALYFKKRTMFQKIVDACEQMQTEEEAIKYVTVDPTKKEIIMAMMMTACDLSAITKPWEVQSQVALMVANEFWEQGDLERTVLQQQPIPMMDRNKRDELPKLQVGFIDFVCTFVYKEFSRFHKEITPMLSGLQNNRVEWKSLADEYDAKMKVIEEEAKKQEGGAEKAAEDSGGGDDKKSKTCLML

molecule | reported-measurement
COc1cc2c(cc1OC1CCCC1)CN(S(=O)(=O)c1ccc(NC(C)=O)cc1)CC2 | > 100 µM

Give IC50 for COC(=O)C1Cc2cc(OC)c(OC3CCCC3)cc2CN1C(=O)c1ccc(OC(F)(F)F)cc1 (configuration not stated)
> 100 µM

* * *

// values below are reported pIC50
molecular target: cAMP and cAMP-inhibited cGMP 3',5'-cyclic phosphodiesterase 10A (Homo sapiens)
Sequence (Q9Y233 whole entry): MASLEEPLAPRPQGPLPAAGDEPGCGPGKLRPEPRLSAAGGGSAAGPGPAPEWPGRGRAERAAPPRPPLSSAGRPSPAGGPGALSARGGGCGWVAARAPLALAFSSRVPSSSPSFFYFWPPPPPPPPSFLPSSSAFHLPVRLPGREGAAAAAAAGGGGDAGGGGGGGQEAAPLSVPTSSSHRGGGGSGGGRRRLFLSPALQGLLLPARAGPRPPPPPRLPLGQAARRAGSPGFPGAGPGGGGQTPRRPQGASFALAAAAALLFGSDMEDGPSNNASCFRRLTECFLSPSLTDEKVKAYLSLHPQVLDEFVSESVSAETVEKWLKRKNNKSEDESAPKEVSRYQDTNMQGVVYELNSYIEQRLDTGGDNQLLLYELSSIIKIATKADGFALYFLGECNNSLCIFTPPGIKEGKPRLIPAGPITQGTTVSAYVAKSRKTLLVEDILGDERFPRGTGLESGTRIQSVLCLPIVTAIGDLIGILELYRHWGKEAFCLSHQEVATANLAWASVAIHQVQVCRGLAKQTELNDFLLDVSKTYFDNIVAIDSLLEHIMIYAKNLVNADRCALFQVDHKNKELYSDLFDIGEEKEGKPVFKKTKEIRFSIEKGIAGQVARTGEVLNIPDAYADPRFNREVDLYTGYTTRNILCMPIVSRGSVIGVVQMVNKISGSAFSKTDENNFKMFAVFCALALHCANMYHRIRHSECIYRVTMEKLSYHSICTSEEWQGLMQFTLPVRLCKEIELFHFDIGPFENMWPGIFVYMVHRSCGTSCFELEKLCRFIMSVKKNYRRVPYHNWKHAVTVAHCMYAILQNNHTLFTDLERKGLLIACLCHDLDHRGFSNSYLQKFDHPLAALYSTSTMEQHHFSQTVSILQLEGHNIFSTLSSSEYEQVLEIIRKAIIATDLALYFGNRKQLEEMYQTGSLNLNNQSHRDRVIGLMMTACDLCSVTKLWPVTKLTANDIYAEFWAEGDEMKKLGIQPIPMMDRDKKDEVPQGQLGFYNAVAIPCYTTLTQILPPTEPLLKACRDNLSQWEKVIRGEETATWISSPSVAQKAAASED
pIC50: −log10 of the molar value.

molecule | reported-measurement
COc1cc2c(cc1OC1CCCC1)CN(S(=O)(=O)c1ccc(NC(C)=O)cc1)CC2 | < 4.00

Pending molecule:
Please tell me the measured pIC50 for COC(=O)C1Cc2cc(OC)c(OC3CCCC3)cc2CN1C(=O)c1ccc(OC(F)(F)F)cc1 (configuration not stated) ; system: cAMP and cAMP-inhibited cGMP 3',5'-cyclic phosphodiesterase 10A (Homo sapiens).
< 4.00

Hello, the source for this data is ChEMBL document CHEMBL4184310, in case you need it.
